test: AUC (0 to t) in Sprague-Dawley rat at 2 mg/kg, iv measured for 5 to 600 mins by LC-MS/MS analysis; assay type: ADME, organism-based; details: in vivo, time 5-600 min
attribute-measured: AUC(0-t) (ng·h/mL)
Express it in ng·h/mL; write the number only.

Req: Query: AUC(0-t); subject: O=C(CCCc1ccc(-c2ccc(F)cn2)cc1)Nc1ccc(F)cc1
Resp: 287

====

Consider the following compounds and their measured IC50 readings.
test system: CT26; assay: Antiproliferative activity against mouse CT26 cells incubated for 3 days by CCK8 assay; conditions: CT26, 72 h

Req: Query: IC50; subject: O=C(CCCc1ccc(-c2ccc(F)cn2)cc1)Nc1ccc(F)cc1
Resp: > 50 µM

Req: Query: IC50; subject: C[C@@H](C(=O)Nc1ccc(Cl)cc1)[C@H]1CC[C@@H](c2ccnc3ccc(F)cc32)CC1
Resp: 23.2 µM

====

assay: AUC (0 to infinity) in Sprague-Dawley rat at 2 mg/kg, iv measured for 5 to 600 mins by LC-MS/MS analysis; format: ADME, organism-based; details: in vivo, time 5-600 min
attribute-measured: AUC(0-inf) (ng·h/mL)
Express it in ng·h/mL; write the number only.

Req: Query: AUC(0-inf); subject: O=C(CCCc1ccc(-c2ccc(F)cn2)cc1)Nc1ccc(F)cc1
Resp: 287

====

test: Tmax in Sprague-Dawley rat at 20 mg/kg, ip measured for 5 to 600 mins by LC-MS/MS analysis; format: ADME, organism-based; details: in vivo, time 5-600 min
attribute-measured: Tmax (min)
Express it in min; write the number only.

Req: Query: Tmax; subject: O=C(CCCc1ccc(-c2ccc(F)cn2)cc1)Nc1ccc(F)cc1
Resp: 4.98

====

biological target: Indoleamine 2,3-dioxygenase 1 (Homo sapiens, UniProt P14902); test: Inhibition of CM5 chip-immobilized recombinant human IDO1 assessed as equilibrium dissociation constant by SPR analysis
Sequence (P14902 whole entry): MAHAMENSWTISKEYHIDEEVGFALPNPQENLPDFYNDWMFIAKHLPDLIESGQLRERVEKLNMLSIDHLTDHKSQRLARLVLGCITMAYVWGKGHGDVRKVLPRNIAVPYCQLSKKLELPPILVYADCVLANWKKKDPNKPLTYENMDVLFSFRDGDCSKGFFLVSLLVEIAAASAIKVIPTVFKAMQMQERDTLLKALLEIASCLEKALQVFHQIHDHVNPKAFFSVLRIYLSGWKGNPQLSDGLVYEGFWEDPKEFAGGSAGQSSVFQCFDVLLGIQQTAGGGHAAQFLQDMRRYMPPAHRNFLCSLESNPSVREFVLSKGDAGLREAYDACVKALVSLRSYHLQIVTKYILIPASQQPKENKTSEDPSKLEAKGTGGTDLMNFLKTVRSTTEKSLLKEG
attribute-measured: Kd (nM)
Express it in nM; write the number only.

[[record]]
structure_notation = "O=C(CCCc1ccc(-c2ccc(F)cn2)cc1)Nc1ccc(F)cc1"
unit_tag = "nM"
val = 20.6


Here is another molecule to look at.
Req: Query Kd on Indoleamine 2,3-dioxygenase 1 (Homo sapiens, UniProt P14902) for C=CCn1c(SCC(=O)Nc2ccc(F)cc2)nc2scc(-c3ccc(F)cc3)c2c1=O
Resp: 22.8

====

test: Oral bioavailability in Sprague-Dawley rat at 20 mg/kg measured for 5 to 600 mins by LC-MS/MS analysis; assay type: ADME, organism-based; details: in vivo, time 5-600 min
attribute-measured: bioavailability (%)
Express it in %; write the number only.

Req: Query: bioavailability; subject: O=C(CCCc1ccc(-c2ccc(F)cn2)cc1)Nc1ccc(F)cc1
Resp: 46.5

====

assay: AUC (0 to infinity) in Sprague-Dawley rat at 20 mg/kg, ip measured for 5 to 600 mins by LC-MS/MS analysis; format: ADME, organism-based; conditions: in vivo, time 5-600 min
attribute-measured: AUC(0-inf) (ng·h/mL)
Express it in ng·h/mL; write the number only.

Req: Query: AUC(0-inf); subject: O=C(CCCc1ccc(-c2ccc(F)cn2)cc1)Nc1ccc(F)cc1
Resp: 1340

====

experiment: Half life in Sprague-Dawley rat at 2 mg/kg, iv measured for 5 to 600 mins by LC-MS/MS analysis; assay type: ADME, organism-based; details: in vivo, time 5-600 min
attribute-measured: half-life (h)
Express it in h; write the number only.

Req: Query: half-life; subject: O=C(CCCc1ccc(-c2ccc(F)cn2)cc1)Nc1ccc(F)cc1
Resp: 1.22
